I'd be grateful if you could share measured pEC50 for these entries.
- system.name: T1, N-Terminal CRH peptide (N-terminal region plus central region, CT biotin) (human and mouse, C-terminal K-Biotin)
- T1 construct: also called N-Ter-CRH
- T1 peptide: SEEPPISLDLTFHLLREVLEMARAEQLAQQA
- procedure.text: ELISA, N-Ter-CRH (CT-biotin) on streptavidin
- Experimental: Streptavidin (Thermo, Cat: 21125) was diluted in PBS to a concentration of 2 μg/ml. 100 μl of diluted streptavidin was added per well to ELISA microplates, and the plates were incubated overnight at 4° C. […] 100 μL of ELISA stopping solution (Solarbio, Cat #: C1058) was added to terminate the reaction, and the optical density at 450 nm (OD450 nm) was determined by an ELISA plate reader (Molecular Devices, Spectra max 384 plus).
One number for each entry, as −log10 of the molar value.

Answered examples (5):
# binder, pEC50
records = [
    ("PR302064 (antibody, human IgG1, kappa, V domains shown) VH: EMQLVESGGGLVKPGGSLRLSCAASGFTFSNYWMNWVRQAPGKGLEWVAEIRLKSNNYATHYAESVKGRFTISRDDSKSTVYLQMNSLKTEDTAVYYCTVGTLVYWGQGTLVTVSS VL: DIVLTQSPDSLAVSLGERATINCRASQSVSTSTYNYMHWFQQKPGQPPKLLIKFASNLESGVPDRFSGSGSGTDFTLTISSLQAEDTAVYYCQHSWEIPYTFGQGTKLEIKR", 10.66),
    ("PR005660 (antibody, human IgG1, kappa, V domains shown) VH: EVQLVESGGVLVQPGGSLRLSCAASGFTFSSYWMTWVRQAPGKGLEWVANIKQEGSEKYYVDSVKGRFTISRDNAKNSLFLQMNSLRAEDTAVYYCARTLIFDYWGQGTLVTVSS VL: DIVMTQSPLSLPVTPGEPASISCRSSQSLLHSTGYQSLEWYLQKPGQSPQLLIYLGSNRASGVPDRFSGSGSGTDFTLKISRVEAEDVGIYYCMQTLQTPITFGQGTRLEIKR", 10.12),
    ("PR302334-26 (antibody, human IgG1, kappa, V domains shown) VH: EVQLVESGGGLVQPGGSLRLSCAASGFTFSTYAMSWVRQAPGKGLEWVASIRSGGTTYYPDSVKGRFTISRDNSKNSLYLQMNSLRAEDTAVYYCTRGIDWGQGTTVTVSS VL: DIVMTQSPDSLAVSLGERATINCKASQSVNNDVAWYQQKPGQPPRLLIYYASNRYTGVPDRFSGSGSGTDFTLTISSLQAEDLAVYFCQQDYSSWTFGGGTKVEIKR", 10.54),
    ("PR302309-11 (antibody, human IgG1, kappa, V domains shown) VH: QIQLVQSGSELKKPGASVKVSCKASGYTFTNYGMNWVRQAPGQGLEWMGWINTYTGEPIYTDDFKGRFVFSLDTSVSTAYLQISSLKAEDTAVYYCSRSTMITTGGVFAYWGQGTLVTVSS VL: DIVMTQTPLSSPVTLGQPASISCRSSQTIVHSDGNTYLEWLQQRPGQPPRLLIYKVSNRFSGVPDRFSGSGAGTDFTLKISRVEAEDVGVYYCFQGSHVPWTFGGGTKVEIKR", 10.55),
    ("PR302309-8 (antibody, human IgG1, kappa, V domains shown) VH: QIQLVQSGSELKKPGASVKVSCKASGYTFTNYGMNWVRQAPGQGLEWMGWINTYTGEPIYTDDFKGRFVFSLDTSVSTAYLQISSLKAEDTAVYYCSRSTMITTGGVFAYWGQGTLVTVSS VL: DVVMTQSPLSLPVTLGQPASISCRSSQTIVHSDGNTYLEWYQQRPGQSPRLLIYKVSNRFSGVPDRFSGSGSGTDFTLKISRVEAEDLGVYYCFQGSHVPWTFGGGTKVEIKR", 10.60),
]

The record that follows has no pEC50 shown yet.
Inquiry: Which measured pEC50 value corresponds to PR302309-18 (antibody, human IgG1, kappa, V domains shown) VH: QVQLVQSGAEVKKPGASVKVSCKASGYTFTNYGMNWVRQAPGQRLEWMGWINTYTGEPIYTDDFKGRVTITRDTSASTAYMELSSLRSEDTAVYYCARSTMITTGGVFAYWGQGTLVTVSS VL: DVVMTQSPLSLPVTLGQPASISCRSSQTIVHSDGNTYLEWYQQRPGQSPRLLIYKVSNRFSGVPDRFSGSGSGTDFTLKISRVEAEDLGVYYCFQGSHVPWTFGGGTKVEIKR ?
Reply text: 10.55
